Value source: patent US20250064983A1

Form field: pEC50 (one value per entry).
target: CaMKIIδ (Homo sapiens); experiment: in vitro inhibition of CaMKIIδ, bioluminescent ADP monitoring assay (ADP-GLO); assay type: biochemical; conditions: purified polypeptides
Where no end group is shown, it is not given here.
# log scale: pEC50 equals minus log10 of the concentration in mol/L

> print(dat)
                                        seq  endpoint.value
1  KRAPKLGQIGRQKAVDIEDKRAPKLGQIGRQKAVDIEDKRAPKLGQIGRQKAVDIED [CN19oX3]            8.68
2  KRAPKLGQIGRQKAVDIED [CN19o, reference compound]            8.80
3  YKKALHRQEAVDALYKKALHRQEAVDALYKKALHRQEAVDALYKKALHRQEAVDALYKKALHRQEAVDAL [AIP×5]            6.94

Qu. Looking for the measured pEC50 of YKKALHRQEAVDALYKKALHRQEAVDALYKKALHRQEAVDAL [AIP×3] , can you help?
Ans. 6.27
